Target: T1, human podocalyxin (human, UniProt O00592 23-558)
T1 construct: also called hPodo; hPodocalyxin
T1 sequence: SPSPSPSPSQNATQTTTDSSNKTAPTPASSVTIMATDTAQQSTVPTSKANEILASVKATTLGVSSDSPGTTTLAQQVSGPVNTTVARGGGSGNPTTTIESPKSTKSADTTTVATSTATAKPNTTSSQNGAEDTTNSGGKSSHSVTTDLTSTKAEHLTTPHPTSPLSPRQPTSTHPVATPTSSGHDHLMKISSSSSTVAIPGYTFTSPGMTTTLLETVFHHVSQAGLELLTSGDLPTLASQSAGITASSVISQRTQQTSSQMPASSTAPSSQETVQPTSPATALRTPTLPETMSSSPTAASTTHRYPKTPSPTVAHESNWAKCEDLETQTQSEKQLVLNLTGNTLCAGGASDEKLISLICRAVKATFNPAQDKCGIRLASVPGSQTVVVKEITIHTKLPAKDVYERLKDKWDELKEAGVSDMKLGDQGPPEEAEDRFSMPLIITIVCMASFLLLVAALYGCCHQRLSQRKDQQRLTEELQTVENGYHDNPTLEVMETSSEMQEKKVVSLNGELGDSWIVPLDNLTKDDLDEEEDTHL
Assay: flow cytometry, supernatant Neat, hPodo/MDA-MB-231 transient transfectants
quantityName: flow cytometry fluorescence (name not given)
Respond with the number and no other words.

stdin: Let me know recorded flow cytometry fluorescence (name not given) for Rb/Hu Podo83 (Podo83 rabbit VH and VL, human IgG1 chimera) (antibody, V domains shown, Rabbit variable domains cloned into human IgG1 and human Ig kappa constant region constructs (pTT5/IgG1, pTT5/Igk); also called anti-PODO; Ab-1) VH: QSLAESGGRLVTPGTPLTLTCTASGIDLSSYAMGWVRQAPGKGLEYIGFIYASGSIFYASWAKGRFTISKTSSTTVDLKMTSLTTEDTATYFCARAGYYFGGNYDLNLWGQGTLVTVSS VL: DIVLTQTPASVEVAVGGTVTIKCQASQSISNYLAWYQRKPGQPPRLLIYRASTLASGVSSRFKGSGSGTQFTLTISGVECADAATYYCQQGYVSNNLDNIFGGGTEVVVK , thanks.
stdout: 79000
